# test_description: CD spectroscopy, helicity at 5 °C
# Assay type: physicochemical
# test_context: PBS pH 7.4, 10 μM individual peptide
Parameter threshold = 30%. Response is TRUE when Helicity at 5 °C (%) meets or exceeds it, else FALSE.

Ask: Check the entry Ac-G AIEK ESAAIEK ELAAIEW ELAAIEK ELA G-NH2 [CC-Tet-A-S7, CC-Tet-A variant with Ser at position 7] : does Helicity at 5 °C (%) equal or exceed 30%?
Result: FALSE

Ask: Reported Helicity at 5 °C (%) at or above 30%? Ac-G KLKALAQ KRRASAK KLKALAW KLKALAQ G-NH2 [apCC-Tet-B-RRXS13, basic antiparallel peptide with PKA site, Ser at position 13]
Result: TRUE

Ask: Tell me whether Helicity at 5 °C (%) is at least 30% here: Ac-G AIEK ELAAIEK ELAAIEW ESAAIEK ELA G-NH2 [CC-Tet-A-S21, CC-Tet-A variant with Ser at position 21]
Result: FALSE

Ask: Hi team, for Ac-G AIEK ELAAIEK ESAAIEW ELAAIEK ELA G-NH2 [CC-Tet-A-S14, CC-Tet-A variant with Ser at position 14] , is the recorded Helicity at 5 °C (%) at or above 30%?
Result: FALSE

Ask: API: above_or_equal(metric=Helicity at 5 °C (%), cutoff=30%) for item Ac-G ELEALAQ ELEALAK ESEALAW ELEALAQ G-NH2 [apCC-Tet-A-S17, acidic antiparallel peptide with Ser at position 17]
Result: TRUE

Ask: Hello, I need to know if Ac-G AIKQ KLAAIRR KSAAIKW KLAAIKQ KLA G-NH2 [CC-Tet-B-RRXS14, basic parallel peptide with PKA site R-R-X-S, Ser at position 14] has measured Helicity at 5 °C (%) not below 30%. Thanks!
Result: FALSE

###

Hi there, I'd appreciate the recorded TM (°C), midpoint of thermal unfolding for every entry that follows.
# test_description: Thermal denaturation monitored by CD (MRE222), midpoint TM
# Assay type: physicochemical
# test_context: CD at 222 nm, 5 to 95 °C, PBS pH 7.4, 10 μM individual peptide

The reported TM (°C), midpoint of thermal unfolding of the substance Ac-G AIKQ KLAAIRR KSAAIKW KLAAIKQ KLA G-NH2 [CC-Tet-B-RRXS14, basic parallel peptide with PKA site R-R-X-S, Ser at position 14] was < 20 °C

Noted for Ac-G KLKALAQ KLKALAK KRRASAW KLKALAQ G-NH2 [apCC-Tet-B-RRXS20, basic antiparallel peptide with PKA site, Ser at position 20] : its TM (°C), midpoint of thermal unfolding reads < 20 °C

substance Ac-G KLKALAQ KRRASAK KLKALAW KLKALAQ G-NH2 [apCC-Tet-B-RRXS13, basic antiparallel peptide with PKA site, Ser at position 13] , TM (°C), midpoint of thermal unfolding observed: < 20 °C

###

# subject_of_test: CC-Tet-A-S14
# Sequence (as listed by the source): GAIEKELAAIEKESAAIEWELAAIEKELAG
# test_description: Isothermal titration calorimetry (ITC) of CC-Tet-B-RRXS14 into CC-Tet-A-S14
# Type: binding
# test_context: 200 μM CC-Tet-B-RRXS14 into 20 μM CC-Tet-A-S14, PBS, 37 °C, heterodimer model, global fit n = 3, read-out: observable KD (concentration at which the complex is half folded)
# Method: To model the disassembly of the A2B2 complex into the unfolded peptides A and B, we needed to determine the dissociation constant (KD) and use this to estimate the forward and reverse rate constants, koff and kon (Figure 5). To do this, we used isothermal titration calorimetry (ITC), titrating CC-Tet-B-RRXS14 into 20 μM CC-Tet-A-S14 at 37 °C, and the heat released upon binding was measured. […]
reported_property: Kd (nM)
Kindly provide the numeric value in nM only, without the unit symbol.

Kindly note the recorded Kd for Ac-G AIKQ KLAAIRR KSAAIKW KLAAIKQ KLA G-NH2 [CC-Tet-B-RRXS14, basic parallel peptide with PKA site R-R-X-S, Ser at position 14] , which is 542

Hey, just so you know, these numbers are from paper PMC10127268.
